Overview of recorded pIC50 for various molecules
# measured_target: full-length human PHD2 (Homo sapiens)
# Construct: The PHD2 construct contained amino acids 1 to 426 of PHD2; His tag (N, cleaved yes); TEV protease cleavage site (N, cleaved yes)
# Sequence (Q9GZT9 whole entry, the tested form may be a part): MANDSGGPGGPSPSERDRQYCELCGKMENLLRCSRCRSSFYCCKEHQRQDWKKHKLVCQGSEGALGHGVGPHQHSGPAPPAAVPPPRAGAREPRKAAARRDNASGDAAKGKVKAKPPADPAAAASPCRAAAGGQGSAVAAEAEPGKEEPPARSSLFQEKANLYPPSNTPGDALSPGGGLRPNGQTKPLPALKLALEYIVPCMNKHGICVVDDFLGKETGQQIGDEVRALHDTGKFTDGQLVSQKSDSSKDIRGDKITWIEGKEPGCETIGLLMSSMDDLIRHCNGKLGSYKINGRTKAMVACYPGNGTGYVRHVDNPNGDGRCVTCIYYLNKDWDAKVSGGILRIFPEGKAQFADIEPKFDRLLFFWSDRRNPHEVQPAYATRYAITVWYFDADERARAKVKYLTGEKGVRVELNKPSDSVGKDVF
# procedure_details: TR-FRET assay, PHD2 enzymatic IC50
# condition_context: 5 nM PHD2, 1 μM 2-OG
pIC50: −log10 of the molar value.

Solved cases below.
- N#Cc1ccc(-c2cnn(-c3ccc(F)cn3)c2O)cc1: > 7.00
- N#Cc1ccc(-c2cnn(-c3ccc(C(F)(F)F)cn3)c2O)cc1: 5.00 to 6.00

input: Checklist item: pIC50 tested on full-length human PHD2 (Homo sapiens), entry `N#Cc1ccc(-c2cnn(-c3ccc(N4CCCC4=O)cn3)c2O)cc1` , value?
output: > 7.00

input: Please provide the recorded pIC50 for `CC(=O)c1ccc(-n2ncc(-c3ccc(C#N)cc3)c2O)nc1` , tested on full-length human PHD2 (Homo sapiens).
output: > 7.00

input: Checklist item: pIC50 tested on full-length human PHD2 (Homo sapiens), entry `N#Cc1ccc(-c2cnn(-c3ccc(Br)cn3)c2O)cc1` , value?
output: 6.00 to 7.00

----------
pIC50: −log10 of the molar value.
Observed pIC50 values for UniProt:Q96KS0 are listed in what follows.
Sequence (Q96KS0 whole entry): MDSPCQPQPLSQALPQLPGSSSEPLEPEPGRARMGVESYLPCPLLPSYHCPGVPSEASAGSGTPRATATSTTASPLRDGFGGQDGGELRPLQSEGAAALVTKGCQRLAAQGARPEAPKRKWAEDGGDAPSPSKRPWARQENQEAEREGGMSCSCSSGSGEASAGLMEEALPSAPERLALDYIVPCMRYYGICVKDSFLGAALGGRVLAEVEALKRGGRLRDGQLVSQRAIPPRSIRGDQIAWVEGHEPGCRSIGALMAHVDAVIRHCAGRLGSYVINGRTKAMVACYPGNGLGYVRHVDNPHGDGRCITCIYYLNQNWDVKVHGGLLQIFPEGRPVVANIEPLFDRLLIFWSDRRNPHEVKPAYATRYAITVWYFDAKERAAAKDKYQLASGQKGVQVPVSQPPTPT

Examples with answers:
- CS(=O)(=O)NC(=O)c1ccc(-n2ncc(-c3ccc(C#N)cc3)c2O)nc1: > 7.00
- CC(C)C(=O)c1ccc(-n2ncc(-c3ccc(C#N)cc3)c2O)nc1: > 7.00
- N#Cc1ccc(-c2cnn(-c3ccc(C4CC4)cn3)c2O)cc1: 6.00 to 7.00
- N#Cc1ccc(-c2cnn(-c3ccc(-c4ccccn4)cn3)c2O)cc1: > 7.00

// switching to the query compound
input: Look up pIC50: `CS(=O)(=O)c1ccc(-n2ncc(-c3cccc(C#N)c3)c2O)nc1`
output: 6.00 to 7.00

----------
List of pIC50 values.
# measured_target: full-length human PHD3 (Homo sapiens)
# Construct: It was expressed in E. coli as the full-length protein; 6-His (N); purchased Active Motif 81033; host or cells: E. coli
# Sequence (Q9H6Z9 whole entry): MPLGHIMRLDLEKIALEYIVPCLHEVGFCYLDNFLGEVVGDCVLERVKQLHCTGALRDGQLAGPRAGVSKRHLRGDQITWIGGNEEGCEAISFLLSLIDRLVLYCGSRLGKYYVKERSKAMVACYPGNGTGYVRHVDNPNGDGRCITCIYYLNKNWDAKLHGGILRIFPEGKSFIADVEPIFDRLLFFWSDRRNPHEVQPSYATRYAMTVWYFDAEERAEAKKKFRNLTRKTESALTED
# procedure_details: TR-FRET assay, PHD3 enzymatic IC50
# Type: biochemical
# condition_context: 35 nM PHD3, 1 μM 2-OG
pIC50: −log10 of the molar value.

Past entries and their recorded results:
• CCC(=O)Nc1ccc(-n2ncc(-c3ccc(C#N)cc3)c2O)nc1 = > 7.00
• COc1cc(-c2cnn(-c3ccc(S(C)(=O)=O)cn3)c2O)ccn1 = 6.00 to 7.00

input: # pIC50 lookup, item `CC(C)C(=O)c1ccc(-n2ncc(-c3ccc(C#N)cc3)c2O)nc1`
output: > 7.00

input: Query: pIC50; subject: `Cc1cc(C#N)ccc1-c1cnn(-c2ccc(S(C)(=O)=O)cn2)c1O`
output: > 7.00

input: Look up pIC50 for this compound: `CCS(=O)(=O)Nc1ccc(-n2ncc(-c3ccc(C#N)cc3)c2O)nc1`
output: > 7.00

input: I'd like to know its pIC50. The compound in question is `CS(=O)(=O)c1ccc(-n2ncc(-c3ccc(CC#N)cc3)c2O)nc1`
output: > 7.00

input: Using the record for `N#Cc1ccc(-c2cnn(-c3ccc(NC(=O)C4CC4)cn3)c2O)cc1` , report its pIC50.
output: 6.00 to 7.00

input: # get_value(readout='pIC50', item= `CS(=O)(=O)c1ccc(-n2ncc(-c3ccc(Cl)cc3)c2O)nc1` )
output: 6.00 to 7.00

input: Would you mind telling me what pIC50 value was observed for `N#Cc1ccc(-c2cnn(-c3ccc(F)cn3)c2O)cc1` ?
output: 6.00 to 7.00

input: I have this compound here, `N#Cc1ccc(-c2cnn(-c3ccc(-c4ncco4)cn3)c2O)cc1` , and I need its recorded pIC50.
output: 6.00 to 7.00
